- target entity: Monoamine transporters; Norepininephrine & dopamine (Rattus norvegicus) (UniProt P23977+Q9WTR4)
- test name: Ratio of IC50 value against NE to that of DA transporters
- Type: protein assay
Use 400 as the dividing line for Ratio, with the line itself on the met side and lower values as not met.

molecule | class name
CN1C2CCC1C(C(=O)Oc1ccccc1)C(c1ccc(Cl)cc1)C2 (stereo unspecified) | met
COC(=O)C1C(c2ccc(N)c(I)c2)CC2CCC1N2C (stereo unspecified) | met
CONC(=O)C1C(c2ccc(Cl)cc2)CC2CCC1N2C (stereo unspecified) | met
CN1[C@H]2CC[C@@H]1[C@@H](C(=O)N1CCCC1)[C@@H](c1ccc(I)cc1)C2 | met
COC(=O)C1C(c2ccc(I)cc2)CC2CCC1N2C (stereo unspecified) | not met
CN1C2CCC1C(C(N)=O)C(c1ccc(Cl)cc1)C2 (stereo unspecified) | not met
COC(=O)C1C(c2ccc(Br)cc2)CC2CCC1N2C (stereo unspecified) | not met
CN1C2CCC1C(C(=O)OC/C=C/c1ccccc1)C(OC(=O)c1ccccc1)C2 (stereo unspecified) | not met
CN1C2CCC1C(C(=O)NCO)C(c1ccc(Cl)cc1)C2 (stereo unspecified) | not met
Cc1ccc(C2CC3CCC(C2C(N)=O)N3C)cc1 (stereo unspecified) | not met
CN1C2CCC1C(C(=O)OCCCc1ccccc1)C(OC(=O)c1ccccc1)C2 (stereo unspecified) | not met

---

- target entity: Sodium-dependent dopamine transporter (Rattus norvegicus)
test readout: IC50 (nM)

molecule | recorded number
CC(C)OC(=O)C1C(c2ccccc2)CC2CCC1N2C (stereo unspecified) | 85.1
CNC(=O)C1C(OC(=O)c2ccccc2)CC2CCC1N2C (stereo unspecified) | 2420
CN1C2CCC1C(C(=O)N1CCOCC1)C(c1ccc(Cl)cc1)C2 (stereo unspecified) | 2.9
CN1C2CCC1C(C(=O)OC1CC1)C(c1ccc(I)cc1)C2 (stereo unspecified) | 0.61
CCN(CC)C(=O)C1C(c2ccc(C)cc2)CC2CCC1N2C (stereo unspecified) | 24.7
COC(=O)C1C(c2ccc(Br)cc2)CC2CCC1N2C (stereo unspecified) | 1.69

---

- target entity: Sodium-dependent serotonin transporter (Rattus norvegicus)
- Sequence (P31652 whole entry): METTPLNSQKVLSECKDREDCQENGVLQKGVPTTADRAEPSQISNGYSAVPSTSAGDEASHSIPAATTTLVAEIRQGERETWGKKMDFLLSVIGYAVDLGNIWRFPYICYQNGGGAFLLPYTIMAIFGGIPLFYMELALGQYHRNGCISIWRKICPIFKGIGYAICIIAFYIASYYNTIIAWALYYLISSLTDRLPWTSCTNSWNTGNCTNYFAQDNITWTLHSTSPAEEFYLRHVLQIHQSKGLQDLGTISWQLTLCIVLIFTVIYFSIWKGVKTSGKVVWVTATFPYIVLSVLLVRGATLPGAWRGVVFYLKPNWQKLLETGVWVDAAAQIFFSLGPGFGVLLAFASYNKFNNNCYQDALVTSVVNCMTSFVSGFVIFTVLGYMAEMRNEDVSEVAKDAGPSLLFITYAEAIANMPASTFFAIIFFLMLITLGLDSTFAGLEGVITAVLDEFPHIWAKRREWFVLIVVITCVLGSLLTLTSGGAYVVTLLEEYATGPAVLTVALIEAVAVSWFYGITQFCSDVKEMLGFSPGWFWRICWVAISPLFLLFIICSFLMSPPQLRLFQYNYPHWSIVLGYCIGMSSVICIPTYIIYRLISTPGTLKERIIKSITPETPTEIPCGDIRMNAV
pIC50: −log10 of the molar value.
Each record here notes measured pIC50.

compound | relation | pIC50
CONC(=O)C1C(c2ccc(Cl)cc2)CC2CCC1N2C (stereo unspecified) | = | 4.36
Cc1ccc(C2CC3CCC(C2C(=O)N2CCOCC2)N3C)cc1 (stereo unspecified) | < | 4.00
CON(C)C(=O)C1C(OC(=O)c2ccccc2)CC2CCC1N2C (stereo unspecified) | = | 4.55
Cc1ccc(OC(=O)C2C(c3ccc(C)cc3)CC3CCC2N3C)cc1 (stereo unspecified) | = | 4.80
CN1C2CCC1C(C(=O)Oc1ccccc1)C(OC(=O)c1ccccc1)C2 (stereo unspecified) | = | 4.47
CN1C2CCC1C(C(=O)N1CCCO1)C(c1ccc(Cl)cc1)C2 (stereo unspecified) | = | 5.61
CN1C2CCC1C(C(=O)N1CCOCC1)C(c1ccc(Cl)cc1)C2 (stereo unspecified) | = | 4.05
CCN(CC)C(=O)C1C(c2ccc(Cl)cc2)CC2CCC1N2C (stereo unspecified) | = | 5.03
CN1[C@H]2CC[C@@H]1[C@@H](C(=O)N1CCCC1)[C@@H](c1ccc(I)cc1)C2 | = | 5.76
COC(=O)[C@H]1[C@@H](c2ccc(F)cc2)C[C@H]2CC[C@H]1N2C | = | 6.16
CNC(=O)C1C(OC(=O)c2ccccc2)CC2CCC1N2C (stereo unspecified) | = | 4.35

---

Each record here notes measured Ratio.
- target entity: Monoamine transporters; Norepininephrine & dopamine (Rattus norvegicus) (UniProt P23977+Q9WTR4)
- test name: Ratio of IC50 value against NE to that of DA transporters
- Type: protein assay

compound | Ratio
Cc1ccc(C2CC3CCC(C2C(=O)N2CCOCC2)N3C)cc1 (stereo not drawn) | 2020
COc1ccc(OC(=O)C2C(c3ccc(C)cc3)CC3CCC2N3C)cc1 (stereo not drawn) | 33
COC(=O)C1C(c2ccc(Cl)c(C)c2)CC2CCC1N2C (stereo not drawn) | 45
CN1[C@H]2CC[C@@H]1[C@@H](C(=O)N1CCCC1)[C@@H](c1ccc(Cl)cc1)C2 | 2860
Cc1cccc(OC(=O)C2C(c3ccc(Cl)cc3)CC3CCC2N3C)c1 (stereo not drawn) | 293
CN1C2CCC1C(C(=O)Oc1ccccc1)C(OC(=O)c1ccccc1)C2 (stereo not drawn) | 277
Cc1ccc(C2CC3CCC(C2C(=O)Oc2ccccc2)N3C)cc1 (stereo not drawn) | 1790
CN1C2CCC1C(C(=O)N1CCCCC1)C(c1ccc(Cl)cc1)C2 (stereo not drawn) | 252
CN1C2CCC1C(C(N)=O)C(OC(=O)c1ccccc1)C2 (stereo not drawn) | 5.3
Cc1ccc(C2CC3CCC(C2C(=O)Oc2ccc(Cl)cc2)N3C)cc1 (stereo not drawn) | 81
CCC(CC)OC(=O)C1C(c2ccc(C)cc2)CC2CCC1N2C (stereo not drawn) | 180
Cc1ccc(C2CC3CCC(C2C(=O)OC(C)C)N3C)cc1 (stereo not drawn) | 299
CCN(CC)C(=O)C1C(c2ccc(Cl)cc2)CC2CCC1N2C (stereo not drawn) | 1010
CON(C)C(=O)C1C(c2ccc(I)cc2)CC2CCC1N2C (stereo not drawn) | 95
CN1C2CCC1C(C(=O)OCCc1ccccc1)C(OC(=O)c1ccccc1)C2 (stereo not drawn) | 110
CN(C)C(=O)C1C(OC(=O)c2ccccc2)CC2CCC1N2C (stereo not drawn) | 58
CN1C2CCC1C(C(=O)Oc1ccccc1)C(c1ccc(I)cc1)C2 (stereo not drawn) | 2580
CON(C)C(=O)C1C(OC(=O)c2ccccc2)CC2CCC1N2C (stereo not drawn) | 66
CN1C2CCC1C(C(=O)Oc1ccccc1)C(c1ccccc1)C2 (stereo not drawn) | 251
CN1C2CCC1C(C(=O)OC1CC1)C(c1ccc(Cl)cc1)C2 (stereo not drawn) | 245
CN1C2CCC1C(C(=O)Oc1ccc(I)cc1)C(c1ccc(Cl)cc1)C2 (stereo not drawn) | 30
CON(C)C(=O)C1C(c2ccc(Cl)cc2)CC2CCC1N2C (stereo not drawn) | 646
CN(C(=O)C1C(c2ccc(Cl)cc2)CC2CCC1N2C)c1ccccc1 (stereo not drawn) | 48

---

Each record here notes measured pKi.
- target entity: UniProt P23977
- test name: Inhibition of [3H]DA uptake by rat striatal dopamine transporter
pKi: −log10 of the molar value.
test readout: pKi

compound | test readout | recorded number
COC(=O)[C@@H]1C2CC[C@H](C[C@@H]1c1ccccc1)N2C | pKi | 7.30
COC(=O)C1C(c2ccc(C)cc2)CC2CCC1N2C (centres undefined) | pKi | 8.15
CN1C2CCC1C(C(=O)Oc1ccccc1)C(c1ccc(Cl)cc1)C2 (centres undefined) | pKi | 8.28
CC(C)OC(=O)C1C(c2ccc(Cl)cc2)CC2CCC1N2C (centres undefined) | pKi | 8.22

---

Each record here notes measured log10 IC50.
- target entity: Sodium-dependent serotonin transporter (Rattus norvegicus)
test readout: log10 IC50 (log10 of the value in nM)

molecule | log10 IC50
CON(C)C(=O)C1C(c2ccc(Cl)cc2)CC2CCC1N2C (stereo unspecified) | 2.86
CN1C2CCC1C(C(N)=O)C(OC(=O)c1ccccc1)C2 (stereo unspecified) | 4.14
CN1C2CCC1C(C(=O)N1CCCO1)C(c1ccc(I)cc1)C2 (stereo unspecified) | 2.11
COC(=O)C1C(c2ccc(Br)cc2)CC2CCC1N2C (stereo unspecified) | 1.03
CC(C)OC(=O)C1C(c2ccc(I)cc2)CC2CCC1N2C (stereo unspecified) | 1.82
CN1C2CCC1C(C(=O)OC/C=C/c1ccccc1)C(OC(=O)c1ccccc1)C2 (stereo unspecified) | 2.57
CN1C2CCC1C(C(=O)N1CCCCC1)C(c1ccc(Cl)cc1)C2 (stereo unspecified) | 3.54
CN1C2CCC1C(C(=O)OCCCc1ccccc1)C(OC(=O)c1ccccc1)C2 (stereo unspecified) | 2.57
Cc1ccc(C2CC3CCC(C2C(N)=O)N3C)cc1 (stereo unspecified) | 3.80
COc1ccc(OC(=O)C2C(c3ccc(C)cc3)CC3CCC2N3C)cc1 (stereo unspecified) | 4.92
CC(C)OC(=O)C1C(c2ccccc2)CC2CCC1N2C (stereo unspecified) | 4.36

---

Each record here notes measured pKi.
- target entity: Sodium-dependent dopamine transporter (Rattus norvegicus, UniProt P23977)
- Sequence (P23977 whole entry): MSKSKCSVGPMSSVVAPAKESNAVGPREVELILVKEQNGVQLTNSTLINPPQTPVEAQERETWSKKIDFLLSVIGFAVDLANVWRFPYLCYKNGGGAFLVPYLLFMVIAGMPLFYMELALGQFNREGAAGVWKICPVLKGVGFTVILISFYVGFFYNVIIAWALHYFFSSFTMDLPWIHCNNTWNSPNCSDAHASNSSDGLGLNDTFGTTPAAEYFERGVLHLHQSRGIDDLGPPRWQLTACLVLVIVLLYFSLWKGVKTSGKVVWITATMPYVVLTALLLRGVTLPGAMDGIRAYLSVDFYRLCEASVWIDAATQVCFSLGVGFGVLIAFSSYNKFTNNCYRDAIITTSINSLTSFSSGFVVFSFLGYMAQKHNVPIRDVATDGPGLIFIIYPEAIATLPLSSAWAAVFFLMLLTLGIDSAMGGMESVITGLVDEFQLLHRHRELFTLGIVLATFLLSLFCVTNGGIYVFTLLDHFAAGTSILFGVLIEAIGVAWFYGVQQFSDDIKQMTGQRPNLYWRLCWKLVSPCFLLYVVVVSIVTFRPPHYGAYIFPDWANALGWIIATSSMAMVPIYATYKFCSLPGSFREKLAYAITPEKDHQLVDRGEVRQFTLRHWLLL
- test name: Inhibition of [3H]DA uptake by rat striatal dopamine transporter
pKi: −log10 of the molar value.

molecule | pKi
Cc1ccc(C2CC3CCC(C2C(=O)Oc2ccccc2)N3C)cc1 (stereo unspecified) | 8.04
CN1C2CCC1C(C(=O)Oc1ccccc1)C(c1ccc(I)cc1)C2 (stereo unspecified) | 8.16
CC(C)OC(=O)C1C(c2ccc(I)cc2)CC2CCC1N2C (stereo unspecified) | 8.55
COC(=O)C1C(c2ccc(I)cc2)CC2CCC1N2C (stereo unspecified) | 8.71
Cc1ccc(C2CC3CCC(C2C(=O)OC(C)C)N3C)cc1 (stereo unspecified) | 7.82
COC(=O)C1C(c2ccc(Cl)cc2)CC2CCC1N2C (stereo unspecified) | 8.43
